- test target: 5α-reductase (Homo sapiens, UniProt P31213)
- Construct: 3×FLAG; expressed in transfected cells; host or cells: HEK 293
- Sequence (P31213 whole entry): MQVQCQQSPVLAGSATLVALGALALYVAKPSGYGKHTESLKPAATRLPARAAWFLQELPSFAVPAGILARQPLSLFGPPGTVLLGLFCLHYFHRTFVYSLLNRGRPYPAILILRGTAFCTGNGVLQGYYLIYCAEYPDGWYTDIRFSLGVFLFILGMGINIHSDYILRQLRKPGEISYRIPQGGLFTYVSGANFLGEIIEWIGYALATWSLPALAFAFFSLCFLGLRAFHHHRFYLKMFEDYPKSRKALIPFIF
- experiment notes: Inhibitory effect on 5α-reductase activity: conversion of [14C]testosterone to [14C]dihydrotestosterone in HEK 293-5α R2 cells
- Format: cell-based
- particulars: radioactivity at DHT region/total radioactivity; 2 μg/ml, 2 hours, HEK 293-5α R2 cells; control group 48
Assign Conversion rate (%) to each entry below.
Numbers only here, please. The scale is %.

// Conversion rate (%) lookup, compound = O=C(/C=C/c1ccc(O)c(O)c1)O[C@@H]1C[C@](OC(=O)/C=C/c2ccc(O)c(O)c2)(C(=O)O)C[C@@H](O)[C@H]1O [1,5-dicaffeoylquinic acid] , result: 30

// Conversion rate (%) lookup, compound = O=c1cc(-c2ccc(O)c(-c3c(O)cc(O)c4c(=O)cc(-c5ccc(O)cc5)oc34)c2)oc2cc(O)cc(O)c12 [amentoflavone] , result: 32

// Conversion rate (%) lookup, compound = O=C(/C=C/c1ccc(O)c(O)c1)OC1CC(OC(=O)/C=C/c2ccc(O)c(O)c2)(C(=O)O)CC(O)C1O (stereo not shown) [1,3-dicaffeoylquinic acid] , result: 30

// Conversion rate (%) lookup, compound = CC(C)(C)NC(=O)[C@H]1CC[C@H]2[C@@H]3CC[C@H]4NC(=O)C=C[C@]4(C)[C@H]3CC[C@]12C [Finasteride, finasteride, reference compound] , result: 27
